Test system: MILI (PIWIL2) piRISC loaded with L1MC piRNA (26 nt);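 note: 1 nM active piRISC with 0.1 nM target library at 33 °C single turnover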
assayMethodText: pre-steady-state target cleavage rate (min^-1); guide: L1MC piRNA 5'p-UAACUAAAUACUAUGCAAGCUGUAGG; higher = faster piRNA-guided slicing of the target
assaySetup: auxiliary factor: none (no GTSF1)
# pre-steady-state target cleavage rate per entry
Give the figure only, with no unit attached.

| sequenceEntry | pre-steady-state target cleavage rate |
| --- | --- |
| UCCUGGAUCAGCUUGCAUAGUAUUAUAGUUA | 0.00669 |

# query: pre-steady-state target cleavage rate | item "UCCUGGUACAGCUAGCAAAGUAUUUAGUUA" | system: MILI (PIWIL2) piRISC loaded with L1MC piRNA (26 nt) 0.0127

# query: pre-steady-state target cleavage rate | item "UCCUGGAACAGCAUGCUUAGUAUUUAGUUA" | system: MILI (PIWIL2) piRISC loaded with L1MC piRNA (26 nt) 0.005

# query: pre-steady-state target cleavage rate | item "UCCUGCUUCACCUUGCAUAGUAUUUAGUUA" | system: MILI (PIWIL2) piRISC loaded with L1MC piRNA (26 nt) 0.00696

# query: pre-steady-state target cleavage rate | item "UCCUGGUACAGCUUGCAUAGAUAUUUAGUUA" | system: MILI (PIWIL2) piRISC loaded with L1MC piRNA (26 nt) 0.00568

# query: pre-steady-state target cleavage rate | item UCCUGGUACAGCUUGCAUAGUAUUUAGUUA [g2:g24:cont:t1A] | system: MILI (PIWIL2) piRISC loaded with L1MC piRNA (26 nt) 0.0215

# query: pre-steady-state target cleavage rate | item "UCCUGGAUGUGCUUGCAUAGUAUUUAGUCA" | system: MILI (PIWIL2) piRISC loaded with L1MC piRNA (26 nt) 0.00487

# query: pre-steady-state target cleavage rate | item "UCCUGGUACAGCUACGAUAGUAUUUAGUUA" | system: MILI (PIWIL2) piRISC loaded with L1MC piRNA (26 nt) 0.00343

# query: pre-steady-state target cleavage rate | item "UCCUGGAUGUCCUAGCAUAGUAAUUAGUUA" | system: MILI (PIWIL2) piRISC loaded with L1MC piRNA (26 nt) 0.00305

# query: pre-steady-state target cleavage rate | item UCCUGGAUGUCGAUGCAUAGUAUUUAGUUC [g2:g17:cont:t1C] | system: MILI (PIWIL2) piRISC loaded with L1MC piRNA (26 nt) 0.00831

# query: pre-steady-state target cleavage rate | item "UCCUGGAUCAGUUGCAUAGUAUUUAGUUA" | system: MILI (PIWIL2) piRISC loaded with L1MC piRNA (26 nt) 0.00796

# query: pre-steady-state target cleavage rate | item "UCCUCGAACAGCUUGCAUAGUAUUUAGUAA" | system: MILI (PIWIL2) piRISC loaded with L1MC piRNA (26 nt) 0.00453

###

# pre-steady-state target cleavage rate per entry
Test system: EfPiwi piRISC loaded with piRNA #1 (26 nt)
assayMethodText: pre-steady-state target cleavage rate (min^-1); auxiliary factor: 500 nM Ephydatia muelleri Gtsf1; guide: piRNA #1 5'p-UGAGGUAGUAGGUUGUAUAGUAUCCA; higher = faster piRNA-guided slicing of the target
Give the figure only, with no unit attached.

Sample records with pre-steady-state target cleavage rate:
| sequenceEntry | pre-steady-state target cleavage rate |
| --- | --- |
| GGAGACCAUACUAUACAACCUACUGACCUCA | 0.0102 |
| GGAGACCUUACAAUACAACCUACUACCUCA | 0.0117 |
| GGAGACCUAACUAUACAACCUACGACCUCA | 0.00261 |
| GGAGACGAUACUAUACAACCUUCUACCACA | 0.00454 |
| GGAGUGGAUCUAUACAACCUACUACCUCA | 0.0612 |
| GGAGACGAAUCUAUACAACCUACUACCUCA | 0.0517 |
| GGAGAGCUAACUAUACAACCUACUACCUCA | 0.00909 |
| GGAGACCUAACAAAACAACCUACUACCUCA | 0.00903 |
| GGAGACCUAACUAUACAACCUUCUACCUGA | 0.00465 |
| GGAGACGAUAGUUUACAACCUACUACCUCA | 0.0165 |

# query: pre-steady-state target cleavage rate | item "GGAGACGAUACAAUACAACCUUCUACCUCA" | system: EfPiwi piRISC loaded with piRNA #1 (26 nt) 0.00327

# query: pre-steady-state target cleavage rate | item "GGAGACGAUAUCUAUACAACCUACUACCUCA" | system: EfPiwi piRISC loaded with piRNA #1 (26 nt) 0.00603

# query: pre-steady-state target cleavage rate | item "GGAGUGGAUACAAUACAACCUACUACCUCA" | system: EfPiwi piRISC loaded with piRNA #1 (26 nt) 0.0165

# query: pre-steady-state target cleavage rate | item "GGAGACCUUACUAUACAACCUGCUACCUCA" | system: EfPiwi piRISC loaded with piRNA #1 (26 nt) 0.0174

# query: pre-steady-state target cleavage rate | item "GGAGACCUUACUAUACAACCUACGACCUCA" | system: EfPiwi piRISC loaded with piRNA #1 (26 nt) 0.00282

# query: pre-steady-state target cleavage rate | item "GGAGACGAUACUAUACAACCUACUACCAGA" | system: EfPiwi piRISC loaded with piRNA #1 (26 nt) 0.00503

# query: pre-steady-state target cleavage rate | item "GGAGACCUUACUGAUACAACCUACUACCUCA" | system: EfPiwi piRISC loaded with piRNA #1 (26 nt) 0.0403

# query: pre-steady-state target cleavage rate | item "GGAGUGGAUACUAUACAACCCACUACCUCA" | system: EfPiwi piRISC loaded with piRNA #1 (26 nt) 0.00487

# query: pre-steady-state target cleavage rate | item "GGAGAGGUUACUAAACAACCUACUACCUCA" | system: EfPiwi piRISC loaded with piRNA #1 (26 nt) 0.00353

# query: pre-steady-state target cleavage rate | item "GGAGAGGAUACUAUACAACCUAGAUCCUCA" | system: EfPiwi piRISC loaded with piRNA #1 (26 nt) 0.00241

# query: pre-steady-state target cleavage rate | item "GGAGACCAUACUAUACAACCUACGACCUCA" | system: EfPiwi piRISC loaded with piRNA #1 (26 nt) 0.00282

# query: pre-steady-state target cleavage rate | item "GGAGACCAUACUAUACAACCUACUGCCUCA" | system: EfPiwi piRISC loaded with piRNA #1 (26 nt) 0.00606

# query: pre-steady-state target cleavage rate | item "GGAGACCUAUCUAUACAACCUACUACCUACA" | system: EfPiwi piRISC loaded with piRNA #1 (26 nt) 0.00445

###

Tested on: EfPiwi piRISC loaded with L1MC piRNA (26 nt)
assayMethodText: pre-steady-state target cleavage rate (min^-1); auxiliary factor: 500 nM Ephydatia muelleri Gtsf1; guide: L1MC piRNA 5'p-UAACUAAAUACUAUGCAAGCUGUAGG; higher = faster piRNA-guided slicing of the target
# pre-steady-state target cleavage rate per entry
Give the figure only, with no unit attached.

# query: pre-steady-state target cleavage rate | item "UCCUGGAUCAGCUUAGCAUAGUAUUUAGUUA" | system: EfPiwi piRISC loaded with L1MC piRNA (26 nt) 0.0874

# query: pre-steady-state target cleavage rate | item "UCCUGGAUGAGCUUGCAAAGUAAUUAGUUA" | system: EfPiwi piRISC loaded with L1MC piRNA (26 nt) 0.00431

# query: pre-steady-state target cleavage rate | item "UCCUCCUACAGCUUGCAUAGUAUUUUCUUA" | system: EfPiwi piRISC loaded with L1MC piRNA (26 nt) 0.00493

# query: pre-steady-state target cleavage rate | item "UCCUGGAUGUGCUUCCAUAGUAUUUAGUAA" | system: EfPiwi piRISC loaded with L1MC piRNA (26 nt) 0.00486

###

Tested on: MILI (PIWIL2) piRISC loaded with piRNA #1 (26 nt);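 note: 1 nM active piRISC with 0.1 nM target library at 33 °C single turnover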
assayMethodText: pre-steady-state target cleavage rate (min^-1); guide: piRNA #1 5'p-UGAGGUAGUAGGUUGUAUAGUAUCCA; MIWI and MILI are mouse PIWI proteins and EfPiwi is from a freshwater sponge; tags in brackets are library labels; higher = faster piRNA-guided slicing of the target
assaySetup: auxiliary factor: 500 nM mouse GTSF1
# pre-steady-state target cleavage rate per entry
Give the figure only, with no unit attached.

Sample records with pre-steady-state target cleavage rate:
| sequenceEntry | systemName | valueReported |
| --- | --- | --- |
| GGAGAGGAUACUAUACAACCUACUAUCUCA | MILI (PIWIL2) piRISC loaded with piRNA #1 (26 nt) | 0.131 |
| GGAGAGGAUACUUUACAACGUACUACCUCA | MILI (PIWIL2) piRISC loaded with piRNA #1 (26 nt) | 0.018 |
| GGAGUGGAUACUAUACGACCUACUACCUCA | MILI (PIWIL2) piRISC loaded with piRNA #1 (26 nt) | 0.135 |
| GGAGACCAUCCUAUACAACCUACUACCUCA | MILI (PIWIL2) piRISC loaded with piRNA #1 (26 nt) | 0.16 |
| GGAGACCUAUGAUUACAUCCUACAACCUCA | MILI (PIWIL2) piRISC loaded with piRNA #1 (26 nt) | 0.00871 |
| GGAGACCAAACUAAACAACCUACUACCUCA | MILI (PIWIL2) piRISC loaded with piRNA #1 (26 nt) | 0.104 |
| GGAGUGGAUACUAUACAACCUACUACCUAA | MILI (PIWIL2) piRISC loaded with piRNA #1 (26 nt) | 0.105 |
| GGAGACCUAUGUAUACAACCUAACUACCUCA | MILI (PIWIL2) piRISC loaded with piRNA #1 (26 nt) | 0.00595 |

Quick check: pre-steady-state target cleavage rate of "GGAGAGGAUACUAUCCAACCUACUACCUCA" ? 0.232
